Recorded %Inh values for a group of compounds are listed next.
- Test system: p38-gamma
- Construct: gene MAPK12
- MEASUREMENT CONDITIONS: concentration: 1 μM, replicates: in singlicate; n = 1;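 also: KINOMEscan kinase panel screen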

Cc1cccc(-c2nc(Nc3cccc(C(N)=O)c3)c3ccccc3n2)n1    58%
CN(C)CCN(C)C(=O)c1cc(-c2ccncc2)c(-c2ccc(Cl)c(O)c2)o1.Cl.Cl    29%
COc1cc(Nc2nccc(N3CCC(NC(=O)Nc4cc(C)ccc4C)C3)n2)cc(OC)c1OC (stereo not drawn)    24%

Attention now turns to another entry.
// query %Inh value for entry CS(=O)(=O)c1ccc(-c2c(-c3ncn[nH]3)sc(N3CCOCC3)c2C#N)cc1
33%

====

- System: ERK3
- Construct: gene MAPK6
- MEASUREMENT CONDITIONS: concentration: 1 μM, replicates: in singlicate; n = 1
Recorded %Inh values for a group of compounds are listed next.
Express your answer as a number followed by its unit.

Cc1cccc(-c2nc(C)cc(Nc3ccncc3)n2)n1    19%
Cc1cccc(-c2cc(Nc3ccncc3)c3ccccc3n2)n1    0%

// query %Inh value for entry COC(=O)c1c(-c2ccccc2)c2cc(OC)ccc2c(=O)n1Cc1ccccc1
0%

// query %Inh value for entry CC1=C(C(=O)Nc2cc3cn[nH]c3cc2F)C(c2ccc(C(F)(F)F)cc2)CC(=O)N1 (stereo not drawn)
14%

// query %Inh value for entry Cc1ccc(-c2cc(-c3c[nH]nc3-c3ccccn3)ccn2)cc1
3%

// query %Inh value for entry O=C(O)COc1ncnc2cc(-c3ccc4[nH]ncc4c3)sc12
0%

// query %Inh value for entry Cl.O=C(Nc1cccc(-c2nn3ncccc3c2-c2ccnc(Nc3cccnc3)n2)c1)c1c(F)cccc1F
0%

// query %Inh value for entry C[C@@H]1CCCCN1c1cc(-c2ccc3c(N)n[nH]c3c2)nc(N)n1
5%

// query %Inh value for entry COc1cc(Nc2nccc(N3CCC(NC(=O)Nc4cc(C)ccc4C)C3)n2)cc(OC)c1OC (stereo not drawn)
5%

====

- Test system: MKK7
- MEASUREMENT CONDITIONS: concentration: 1 μM, replicates: in singlicate; n = 1
Recorded %Inh values for a group of molecules are listed next.
Express your answer as a number followed by its unit.

Here's what some known entries look like.
COC(=O)c1c(-c2ccccc2)c2cc(C(=O)O)ccc2c(=O)n1Cc1ccccc1    0%
Cc1cccc(-c2nc(Nc3cccc(C(N)=O)c3)c3ccccc3n2)n1 [GW876019]    0%
CCn1c(-c2cccnc2O)nc2cnccc21 [SB-736715]    0%
Cc1cc(N2Cc3ccccc3C2)nc(Nc2ccc(S(=O)(=O)N3CCOCC3)cc2)n1.Cl [GSK1669917]    0%

// query %Inh value for entry COc1cc2nccc(Nc3ccc(NC(=O)c4ccc(C)cc4)c(O)c3)c2cc1OC.Cl [GW440132]
0%

// query %Inh value for entry COc1cccc(NC(=O)NC2CCN(c3ccnc(Nc4ccc(F)cc4)n3)C2)c1 (stereo not drawn) [GSK1379721]
0%

// query %Inh value for entry COc1cccc(-c2cc(-c3c[nH]nc3-c3ccccn3)ccn2)c1 [GW680338]
10%

// query %Inh value for entry Cc1cccc(-c2nc(Nc3ccncc3)c3ccccc3n2)n1 [GW855857]
0%

// query %Inh value for entry CN1C(=O)C(Nc2ccc(Cl)c(C(=O)O)c2)=C(c2ccc(Cl)cc2)C1=O [SB-404290]
0%

====

- System: MYO3B
- MEASUREMENT CONDITIONS: concentration: 1 μM, replicates: in singlicate; n = 1
Recorded %Inh values for a group of molecules are listed next.
Kindly answer with a numeric value in %, unit omitted.

Cc1nnc(-c2ccc3occ(-c4ccc(S(C)=O)cc4)c3c2)[nH]1 (centres unmarked)    2

// query %Inh value for entry O=C(O)COc1ncnc2cc(-c3ccc4[nH]ncc4c3)sc12
0

// query %Inh value for entry O=C(Nc1n[nH]c2nc(-c3nccs3)c(Br)cc12)C1CC1 [SB-742251]
0

// query %Inh value for entry Cl.NC(=O)c1cccc(Nc2nccc(Nc3ccc(Oc4cccc(Cl)c4)c(Cl)c3)n2)c1 [GW659008]
3

// query %Inh value for entry Cn1ccc2ncnc(Oc3ccc(Nc4nc5ccccc5[nH]4)cc3)c21
0

====

- System: GRK4
- MEASUREMENT CONDITIONS: concentration: 1 μM, replicates: in singlicate; n = 1
REPORTED ENDPOINT: %Inh

C[C@@H]1CCCCN1c1cc(-c2ccc3c(N)n[nH]c3c2)nc(N)n1    0%
Nc1nc(-c2nccs2)c(-c2ccnc3ccccc23)s1    21%
Cn1ccc2ncnc(Oc3cccc(C(=O)Nc4ccccc4)c3)c21    3%

Request: %Inh, test system GRK4, entry Cc1c(O)cccc1Nc1ccnc2ccc(C(F)(F)F)cc12.Cl
0%

Request: %Inh, test system GRK4, entry COc1ccc(Nc2nccc(NCCNC(=O)Nc3ccccc3F)n2)cc1
0%

====

Recorded %Inh values for a group of molecules are listed next.
- System: HIPK1
- MEASUREMENT CONDITIONS: concentration: 1 μM, replicates: in singlicate; n = 1
Kindly answer with a numeric value in %, unit omitted.

Here's what some known entries look like.
COc1cc2nccc(Nc3ccc(NC(=O)c4ccc(C)cc4)c(O)c3)c2cc1OC.Cl    6
Cc1ccc(-c2cc(-c3c[nH]nc3-c3ccccn3)ccn2)cc1    7
COc1ccccc1-c1ccc2c(NC(=O)C3CC3)n[nH]c2n1    0
O=C(Nc1n[nH]c2nc(-c3nccs3)c(Br)cc12)C1CC1    0

Attention now turns to another entry.
// query %Inh value for entry Nc1ncnc2[nH]c(-c3ccccc3)nc12
19

====

- System: MAPKAPK2
- MEASUREMENT CONDITIONS: concentration: 1 μM, replicates: in singlicate; n = 1
Decide by %Inh: equal to or exceeding 5% means 1 (yes), less means 0 (no).

Consider the following illustrative entries.
Cc1ccc(C(=O)Nc2ccc(Nc3ccnc4cc(-c5ccccn5)ccc34)cc2O)cc1.Cl [GW440146]    1 (yes)
CCn1c(-c2ccccn2)nc2cnccc21 [SB-736398]    1 (yes)
Fc1cc(Cl)ccc1Nc1ccnc2cc(-c3ccc(CN4CCCCC4)o3)ccc12 [GW560116]    0 (no)

Okay, next one:
Could you verify whether the entry COc1ccccc1-c1ccc2c(NC(=O)C3CC3)n[nH]c2n1 [SB-711239] shows %Inh of no less than 5%?
1 (yes)

====

- Tested on: NEK7
- MEASUREMENT CONDITIONS: concentration: 1 μM, replicates: in singlicate; n = 1
Recorded %Inh values for a group of compounds are listed next.
Kindly answer with a numeric value in %, unit omitted.

COc1cc2nccc(Nc3ccc(NC(=O)c4ccc(C)cc4)c(O)c3)c2cc1OC.Cl    0
Cc1c(Cn2ccn3c(=O)cc(N4CCOCC4)nc23)cccc1C(F)(F)F    4
CS(=O)(=O)c1ccc(-c2c(-c3ncn[nH]3)sc(N3CCOCC3)c2C#N)cc1    0
Nc1nc(-c2nccs2)c(-c2ccnc3ccccc23)s1    0
Cl.c1ccc(-c2n[nH]cc2-c2ccnc(-c3ccc(CN4CCOCC4)cc3)c2)nc1    0

// query %Inh value for entry COc1cccc(-c2cc(-c3c[nH]nc3-c3ccccn3)ccn2)c1
0

// query %Inh value for entry COc1cc(Nc2nccc(N3CCC(NC(=O)Nc4cc(C)ccc4C)C3)n2)cc(OC)c1OC (stereo not drawn)
54

// query %Inh value for entry CC(=O)Nc1nc2cnc(Nc3cc(NC(=O)c4cccc(CCC#N)c4)ccc3C)nc2s1
6

// query %Inh value for entry COc1ccc(C2=C(Nc3cccc(C(=O)O)c3)C(=O)NC2=O)cc1
28

// query %Inh value for entry COC(=O)c1c(-c2ccccc2)c2cc(OC)ccc2c(=O)n1Cc1ccccc1
0

====

- System: SRPK2
- MEASUREMENT CONDITIONS: concentration: 1 μM, replicates: in singlicate; n = 1
Recorded %Inh values for a group of compounds are listed next.
Kindly answer with a numeric value in %, unit omitted.

Here's what some known entries look like.
COc1ccccc1CNC(=O)c1cc(C(=O)c2ccccc2C)c[nH]1    0
Cc1nnc(-c2ccc3occ(-c4ccc(S(C)=O)cc4)c3c2)[nH]1 (centres unmarked)    0
COc1ccccc1-c1ccc2c(NC(=O)C3CC3)n[nH]c2n1    31
O=S(=O)(c1ccc(-c2ccnc3[nH]ccc23)cc1)N1CCCC1    0

Attention now turns to another entry.
// query %Inh value for entry NC(=O)c1nnc2ccccc2c1N
0

====

Recorded %Inh values for a group of compounds are listed next.
- Tested on: FRK
- MEASUREMENT CONDITIONS: concentration: 1 μM, replicates: in singlicate; n = 1
Kindly answer with a numeric value in %, unit omitted.

Here's what some known entries look like.
Cc1ccc(-c2cc(-c3c[nH]nc3-c3ccccn3)ccn2)cc1    4
Nc1ncnc2[nH]c(-c3ccccc3)nc12    13
O=C(O)COc1ncnc2cc(-c3ccc4[nH]ncc4c3)sc12    100
Cc1ccc(NC(=O)Nc2cc(C(C)(C)C)nn2-c2ccccc2)cc1    22
COc1cccc(-c2cc(-c3c[nH]nc3-c3ccccn3)ccn2)c1    10

// query %Inh value for entry COc1ccc(C2=C(Nc3cccc(C(=O)O)c3)C(=O)NC2=O)cc1
0

Cited source: paper PMC5540273
